# Test Target: Leucyl-tRNA synthetase (LeuRS) (Escherichia coli (strain K12))
# Sequence (P07813 whole entry, looked up): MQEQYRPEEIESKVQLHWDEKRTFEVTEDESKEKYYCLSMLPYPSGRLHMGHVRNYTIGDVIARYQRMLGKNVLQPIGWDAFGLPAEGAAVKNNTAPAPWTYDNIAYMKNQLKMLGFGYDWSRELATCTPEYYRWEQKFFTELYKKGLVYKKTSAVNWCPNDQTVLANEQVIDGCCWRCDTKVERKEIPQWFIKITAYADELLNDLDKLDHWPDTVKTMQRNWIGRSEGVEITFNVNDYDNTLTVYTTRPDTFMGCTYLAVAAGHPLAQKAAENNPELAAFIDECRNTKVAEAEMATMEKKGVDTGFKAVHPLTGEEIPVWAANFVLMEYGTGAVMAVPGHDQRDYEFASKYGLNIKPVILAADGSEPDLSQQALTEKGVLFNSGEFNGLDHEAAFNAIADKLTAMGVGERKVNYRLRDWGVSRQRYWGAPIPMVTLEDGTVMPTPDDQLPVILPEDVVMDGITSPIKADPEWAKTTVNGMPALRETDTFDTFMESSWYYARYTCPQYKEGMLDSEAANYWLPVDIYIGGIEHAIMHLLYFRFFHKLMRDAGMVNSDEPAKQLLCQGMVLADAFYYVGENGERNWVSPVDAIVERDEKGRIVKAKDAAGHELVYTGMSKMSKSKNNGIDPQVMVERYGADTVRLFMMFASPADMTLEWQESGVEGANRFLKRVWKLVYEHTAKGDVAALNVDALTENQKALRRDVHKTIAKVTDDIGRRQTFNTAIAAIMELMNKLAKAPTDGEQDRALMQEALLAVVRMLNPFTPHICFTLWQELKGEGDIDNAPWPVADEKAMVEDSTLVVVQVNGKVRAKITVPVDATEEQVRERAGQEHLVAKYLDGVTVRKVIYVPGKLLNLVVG
# Test: Leucyl-tRNA synthetase enzyme inhibition (AMP-Glo; single point % inhibition at 100 μM and IC50)
# Type: biochemical
Quantity: IC50 (µM)

In [3]: df
Out[3]:
                                    compound  quantity  endpoint_result
 0  Cc1nc([S@@](N)(=O)=NC(=O)[C@@H](N)CC(C)C)cs1.Cl [ANASIA-129-1]      IC50            0.319
 1  CC(C)C[C@H](N)C(=O)N=S(N)(=O)c1cc2ccccc2s1 (stereo partly drawn) [ANASIA-023]      IC50             1.29
 2  Cc1ccccc1[S@@](N)(=O)=NC(=O)[C@@H](N)CC(C)C [ANASIA-086-1]      IC50             3.33
 3  CC(C)C[C@H](N)C(=O)N=[S@](N)(=O)c1cc(C#N)cs1.Cl [ANASIA-136-1]      IC50           0.0718
 4  CC(C)C[C@H](N)C(=O)N=[S@](N)(=O)c1nsc2ccccc12 [ANASIA-132-1]      IC50             4.14
 5  CC(C)C[C@H](N)C(=O)N=[S@](N)(=O)c1cccc(C(F)(F)F)c1.Cl [ANASIA-089-1]      IC50            0.195
 6  CC(C)C[C@H](N)C(=O)N=[S@](N)(=O)c1cccc2ccccc12 [ANASIA-016-1]      IC50              2.2
 7  CC(C)C[C@H](N)C(=O)N=[S@](N)(=O)c1ccccn1.Cl [ANASIA-075-1]      IC50             0.42
 8  CC(C)C[C@H](N)C(=O)N=[S@@](N)(=O)c1nc(C(F)F)cs1 [ANASIA-127-2]      IC50            0.192
 9  CCc1csc([S@](N)(=O)=NC(=O)[C@@H](N)CC(C)C)c1 [ANASIA-133-2]      IC50             6.37
10  Cc1nc([S@@](N)(=O)=NC(=O)[C@@H](N)CC(C)C)sc1C [ANASIA-128-1]      IC50             2.61
11  CC(C)C[C@H](N)C(=O)N=[S@](N)(=O)c1scc(Br)c1Br.Cl [ANASIA-107-1]      IC50            0.106
12  CC(C)C[C@H](N)C(=O)N=[S@](N)(=O)c1ccc(Cl)s1 [ANASIA-009-1]      IC50             1.83
13  CC(C)C[C@H](N)C(=O)N=[S@](N)(=O)c1sccc1C(C)C [ANASIA-110-1]      IC50            0.425
14  CC(C)C[C@H](N)C(=O)N=[S@](N)(=O)c1csc(Cl)c1.Cl [ANASIA-099-1]      IC50            0.124
15  CC(C)C[C@H](N)C(=O)N=[S@](N)(=O)c1scc(Cl)c1Cl.Cl [ANASIA-081-1]      IC50           0.0339
16  CC(C)C[C@H](N)C(=O)N=[S@](N)(=O)c1ccc(Cl)cc1 [ANASIA-040-1]      IC50             2.54
17  CC(C)C[C@H](N)C(=O)N=[S@](N)(=O)c1sccc1Cl.Cl [ANASIA-012-1]      IC50           0.0874
